experimental-system: T1, JARID1A PHD finger
T1 chain: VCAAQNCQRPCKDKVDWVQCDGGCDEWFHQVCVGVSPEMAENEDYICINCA
run-description: ITC
Where no end group is shown, it is not given here.
assay-readout: pKd
Would you please state pKd, meaning minus log10 of the concentration in mol/L, as a bare number?

Prompt: Reported pKd for ARTK(Me3)QTARKSTGGKA-NH2 [H3K4me3 histone H3 tail peptide (ITC)] : what is it?
Response: 5.77

Prompt: I would be grateful if you could share the reported pKd for ARTKQTARKSTGGKA (trimethyl-lysine at 4; histaminylated glutamine at 5; C-terminal amide (general statement of the peptide synthesis)) [H3K4me3Q5his histone H3 tail peptide (ITC)] .
Response: 5.73

Prompt: Using the record for ARTKQTARKSTGGKA (trimethyl-lysine at 4; serotonylated glutamine at 5; C-terminal amide (general statement of the peptide synthesis)) [H3K4me3Q5ser histone H3 tail peptide (ITC)] , report its pKd.
Response: 5.54
